What TGI was measured for each of the following?
Tested on: SF-295 CNS
PROTOCOL SUMMARY: NCI tumour cell line growth inhibition, 48 h

For the molecule shown here, C=C1CCC2C(C)(CO)C(O)CCC2(C)C1CC(O)/C(=C/CO)C(=O)O (centres undefined) , give the reported TGI.
> 100 µM

Similarly, "CN(C)c1ccc(C(=O)NCCCCCCC(=O)NO)cc1" ?
1.82 µM

# iterate: CC1CC(c2ccc([N+](=O)[O-])cc2)=Nc2ccccc2S1 (centres undefined)
45.3 µM

Also need "O=C(O)c1cccc2cccc(-c3c4ccc(=O)cc-4oc4cc(O)ccc34)c12" , thanks.
> 100 µM

Also CCC(C)CN1C(=O)NC(Cc2ccccc2)C1=O (centres undefined) , if possible.
> 100 µM

Please do the same for "CN(C)CCCNC(=O)N/N=C/c1ccc([N+](=O)[O-])cc1" as well.
> 100 µM

Similarly, "Cn1c(=O)[nH]c2nccnc2c1=O" ?
> 10 µM

What about "Cc1ccc(C(=O)Nc2ccccc2)cc1N=NN(C)C" ?
> 100 µM

Next molecule: "O=P(O)(NCCCl)NCCCl"
> 100 µM

Request: "COc1nc(N)c(C#N)c(C#N)c1C#N"
> 10 µM

Thanks! And "COc1ccc(S(=O)(=O)N/N=C\c2cc([N+](=O)[O-])cc(I)c2O)c(OC)c1OC" ?
> 100 µM

Try this molecule next: "COc1ccc(NC(=O)/C(Cc2nc3ccccc3[nH]c2=O)=N\O)c(OC)c1"
> 100 µM

Next: COc1cc(C2SC(N)=Nc3c2c(C)nn3C(=O)c2ccc(Cl)cc2)cc(OC)c1OC (centres undefined)
> 10 µM

Could you do the same for "Nc1ccc2c(c1)C(=O)N(OS(=O)(=O)c1ccccc1)C2=O" , please?
> 100 µM

What do we get for CCOP(=O)(O)C(Nc1ccc(N=Nc2ccccc2)cc1)c1ccc(C(Nc2ccc(N=Nc3ccccc3)cc2)P(=O)(O)OCC)cc1 (centres undefined) ?
35 µM

Next record, please: O=C1/C(=C\c2ccccc2)C2/C(=C\c3ccccc3)C(=O)/C(=C\c3ccccc3)C2/C1=C\c1ccccc1 (centres undefined)
5.71 µM

What would you report for "Cc1ncc([N+](=O)[O-])n1CCNC(=O)CCCn1ccnc1[N+](=O)[O-]" ?
> 100 µM

Next molecule up: "CN1CCc2c(c3ccccc3c3ccccc23)C1"
33.6 µM

// repeat for CC(=O)O[C@H]1CCC2(C)C(=CCC3C2CCC2(C)/C(=N/OC(=O)c4ccc(N(CCCl)CCCl)cc4)CCC32)C1 (some centres undefined) and report
> 58 µM

* * *

Test system: K-562 leukemia
PROTOCOL SUMMARY: NCI tumour cell line growth inhibition, 48 h
ASSAY METRIC: TGI

Field request: TGI | item: COc1cc(C2SC(N)=Nc3c2c(C)nn3C(=O)c2ccc(Cl)cc2)cc(OC)c1OC (stereo not given)
> 10 µM

Same lookup for "Nc1ccc2c(c1)C(=O)N(OS(=O)(=O)c1ccccc1)C2=O" , please.
> 100 µM

Subsequent entry: "CCOC(=O)Nn1c(C)nnc1CC#N"
> 100 µM

# repeat for "c1ccc2c(c1)nc1n2sc2nc3ccccc3n21"
> 100 µM

Okay, and O=C1C2C=CC(n3[nH]c(=O)n(Cc4ccccc4)c3=O)CC2C(=O)N1c1cccc(Cl)c1 (stereo not given) ?
> 100 µM

Request: "CCc1cccc(C)c1NC(=O)C1=C(C)NC(C)=C(C(=O)Nc2c(C)cccc2CC)C1c1ccc([N+](=O)[O-])cc1"
> 100 µM

Thanks! And Nc1nc(SCCC/C=C/B(O)O)nc2c1ncn2C1OC(COP(=O)(O)O)C(O)C1O (stereo not given) ?
> 203 µM

What about CC1=NN(c2nc(N)nc(C(C#N)C(=O)c3cc4c(cc3Cl)Sc3nccn3S4(=O)=O)n2)C(C)(C)C1 (stereo not given) ?
> 100 µM

Another molecule to look at: "CCN(CC)Cc1cc(Nc2c3ccccc3nc3c4ccccc4n(C)c23)cc(CN(CC)CC)c1O"
> 35 µM

What do we get for "COc1cc(NCCCCCN=C(N)N)c2ncccc2c1" ?
> 88.2 µM
